# Target System: CDK16/CycY (Homo sapiens (Human), UniProt Q00536)
# Sequence (Q00536 whole entry): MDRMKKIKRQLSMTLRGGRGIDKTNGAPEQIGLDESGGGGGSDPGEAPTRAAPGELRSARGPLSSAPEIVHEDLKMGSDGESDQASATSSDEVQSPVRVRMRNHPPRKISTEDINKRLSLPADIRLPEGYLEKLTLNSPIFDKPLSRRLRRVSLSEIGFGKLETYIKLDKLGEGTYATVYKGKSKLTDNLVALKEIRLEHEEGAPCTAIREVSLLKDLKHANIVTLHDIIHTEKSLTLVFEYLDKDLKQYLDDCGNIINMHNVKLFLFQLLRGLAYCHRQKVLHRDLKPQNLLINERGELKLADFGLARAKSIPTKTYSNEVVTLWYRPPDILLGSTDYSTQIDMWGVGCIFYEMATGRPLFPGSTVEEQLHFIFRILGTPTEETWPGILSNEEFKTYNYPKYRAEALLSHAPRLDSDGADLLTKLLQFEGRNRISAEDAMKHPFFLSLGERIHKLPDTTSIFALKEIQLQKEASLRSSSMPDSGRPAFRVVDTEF
# Sequence (Q8ND76 whole entry partner): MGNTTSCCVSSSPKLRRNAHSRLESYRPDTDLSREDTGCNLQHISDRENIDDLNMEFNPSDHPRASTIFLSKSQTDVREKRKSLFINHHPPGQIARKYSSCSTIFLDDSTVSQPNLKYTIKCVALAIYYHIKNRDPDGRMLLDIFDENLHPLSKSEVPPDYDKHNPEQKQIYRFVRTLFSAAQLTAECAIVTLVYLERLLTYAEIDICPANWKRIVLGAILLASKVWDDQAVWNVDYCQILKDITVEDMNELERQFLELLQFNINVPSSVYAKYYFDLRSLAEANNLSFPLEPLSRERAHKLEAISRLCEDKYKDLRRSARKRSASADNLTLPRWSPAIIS
# Assay Details: Lanthascreen Eu kinase binding assay for CDK16/CycY
# Condition Description: read-out: CDK16 IC50
Assay Endpoint: pIC50
Here pIC50 is given on a logarithmic scale as minus log10 of the concentration in mol/L.

COc1cccc(Cl)c1C(=O)Nc1c[nH]nc1C(=O)NC1CCN(Cc2cccc(NC(=O)/C=C/CN(C)C)c2)CC1 ... 8.09
CN(C)C/C=C/C(=O)Nc1cccc(S(=O)(=O)N2CCC(NC(=O)c3n[nH]cc3NC(=O)c3c(Cl)cc(Cl)cc3Cl)CC2)c1 ... 8.00
CCOc1cccc(Cl)c1C(=O)Nc1c[nH]nc1C(=O)NC1CCN(S(=O)(=O)c2cccc(NC(=O)/C=C/CN(C)C)c2)CC1 ... 8.54

Data request: Would you mind telling me what pIC50 value was observed for COc1cccc(Cl)c1C(=O)Nc1c[nH]nc1C(=O)NC1CCN(S(=O)(=O)c2cccc(NC(=O)/C=C/CN(C)C)c2)CC1 ?
Data returned: 8.64

----------
Below, each of the compounds is paired with its reported pIC50 value.
# Target System: Cdk14 (Homo sapiens (Human), UniProt O94921)
# Assay Details: Cdk14 33P kinase assay (Reaction Biology Corp.)
# Assay type: biochemical
# Sequence (O94921 whole entry, looked up): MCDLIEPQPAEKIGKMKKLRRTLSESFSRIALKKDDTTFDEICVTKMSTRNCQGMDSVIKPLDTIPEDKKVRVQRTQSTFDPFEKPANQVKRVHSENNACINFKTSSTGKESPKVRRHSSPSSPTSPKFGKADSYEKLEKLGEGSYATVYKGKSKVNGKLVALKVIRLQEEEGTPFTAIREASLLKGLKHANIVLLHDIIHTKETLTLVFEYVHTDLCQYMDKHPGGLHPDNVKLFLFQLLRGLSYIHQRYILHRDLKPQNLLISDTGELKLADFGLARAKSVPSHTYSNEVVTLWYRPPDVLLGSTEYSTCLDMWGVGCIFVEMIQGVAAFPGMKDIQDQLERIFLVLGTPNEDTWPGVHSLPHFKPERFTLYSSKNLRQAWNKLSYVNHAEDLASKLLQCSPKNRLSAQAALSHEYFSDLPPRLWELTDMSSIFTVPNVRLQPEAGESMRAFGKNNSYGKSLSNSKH
# Sequence (Q8ND76 whole entry partner, looked up): as the sequence (Q8ND76 whole entry partner) above
Here pIC50 is given on a logarithmic scale as minus log10 of the concentration in mol/L.

CN(C)C/C=C/C(=O)Nc1ccc(S(=O)(=O)N2CCC(NC(=O)c3n[nH]cc3NC(=O)c3c(Cl)cccc3Cl)CC2)cc1 [FMF-03-197-2] ... 7.37
C=CC(=O)Nc1cccc(CN2CCC(NC(=O)c3n[nH]cc3NC(=O)c3c(Cl)cccc3OC)CC2)c1 [FMF-04-161-1] ... 6.25

Data request: So what pIC50 did CN(C)C/C=C/C(=O)Nc1cccc(S(=O)(=O)N2CCC(NC(=O)c3n[nH]cc3NC(=O)c3c(F)cc(F)cc3F)CC2)c1 [FMF-04-095-2] get with Cdk14 (Homo sapiens (Human), UniProt O94921)?
Data returned: 6.42

----------
# Target System: CDK2/CycA (Homo sapiens (Human), UniProt P24941)
# Assay Details: Z'LYTE kinase assay for CDK2/CycA at Km ATP
# Format: biochemical
# Condition Description: read-out: IC50 CDK2 Z′LYTE kinase assay
Assay Endpoint: pIC50
Here pIC50 is given on a logarithmic scale as minus log10 of the concentration in mol/L.

The examples below pair each entry with its known result.
C=CC(=O)Nc1cccc(C(=O)N2CCC(NC(=O)c3n[nH]cc3NC(=O)c3c(Cl)cccc3Cl)CC2)c1 ... 8.47
CN(C)C/C=C/C(=O)Nc1cccc(CN2CCC(NC(=O)c3n[nH]cc3NC(=O)c3c(Cl)cccc3Cl)CC2)c1 ... 7.59
CN(C)C/C=C/C(=O)Nc1ccc(CN2CCC(NC(=O)c3n[nH]cc3NC(=O)c3c(Cl)cccc3Cl)CC2)cc1 ... 7.62

Data request: Would you mind telling me what pIC50 value was observed for C=CC(=O)Nc1cccc(CN2CCC(NC(=O)c3n[nH]cc3NC(=O)c3c(F)cccc3F)CC2)c1 ?
Data returned: 6.78

Data request: Next: COc1cccc(Cl)c1C(=O)Nc1c[nH]nc1C(=O)NC1CCN(Cc2cccc(NC(=O)/C=C/CN(C)C)c2)CC1
Data returned: 7.44

Data request: Next: COc1cccc(OC)c1C(=O)Nc1c[nH]nc1C(=O)NC1CCN(S(=O)(=O)c2cccc(NC(=O)/C=C/CN(C)C)c2)CC1
Data returned: 7.61

Data request: Next: CN(C)C/C=C/C(=O)Nc1ccc(N2CCC(NC(=O)c3n[nH]cc3NC(=O)c3c(Cl)cccc3Cl)CC2)cc1
Data returned: 7.77

----------
# Target System: CDK16/CycY (Homo sapiens (Human), UniProt Q00536)
# Assay Details: Lanthascreen Eu kinase binding assay for CDK16/CycY
# Condition Description: read-out: IC50 CDK16 Lanthascreen binding
Below, each of the compounds is paired with its reported log10 of IC50 value.
A value of 2 here means IC50 of 100 in nM, since values are log10.

CN(C)C/C=C/C(=O)Nc1ccc(CN2CCC(NC(=O)c3n[nH]cc3NC(=O)c3c(Cl)cccc3Cl)CC2)cc1 [FMF-03-199-2] ... 1.26
COc1cccc(Cl)c1C(=O)Nc1c[nH]nc1C(=O)NC1CCN(Cc2cccc(NC(=O)/C=C/CN(C)C)c2)CC1 [FMF-05-032-1] ... 0.91
CCC(=O)Nc1cccc(S(=O)(=O)N2CCC(NC(=O)c3n[nH]cc3NC(=O)c3c(Cl)cccc3Cl)CC2)c1 [FMF-04-060-1] ... 0.36

Data request: So what log10 of IC50 did C=CC(=O)Nc1cccc(CN2CCC(NC(=O)c3n[nH]cc3NC(=O)c3c(Cl)cccc3OC)CC2)c1 [FMF-04-161-1] get with CDK16/CycY (Homo sapiens (Human), UniProt Q00536)?
Data returned: 1.11

----------
Below, each of the compounds is paired with its reported IC50 value.
# Target System: CDK2/CycA (Homo sapiens (Human), UniProt P24941)
# Assay Details: Z'LYTE kinase assay for CDK2/CycA at Km ATP
# Assay type: biochemical
# Condition Description: read-out: CDK2 IC50
Your answer should be a number followed by the unit of measure.

COc1cccc(Cl)c1C(=O)Nc1c[nH]nc1C(=O)NC1CCN(Cc2cccc(NC(=O)/C=C/CN(C)C)c2)CC1 [FMF-05-032-1] ... 36 nM
CCOc1cccc(Cl)c1C(=O)Nc1c[nH]nc1C(=O)NC1CCN(S(=O)(=O)c2cccc(NC(=O)/C=C/CN(C)C)c2)CC1 [FMF-05-118-1] ... 2.9 nM
COc1cccc(Cl)c1C(=O)Nc1c[nH]nc1C(=O)NC1CCN(S(=O)(=O)c2cccc(NC(=O)/C=C/CN(C)C)c2)CC1 [FMF-04-107-2] ... 4.5 nM

Let's switch to this compound now.
Data request: Would you mind telling me what IC50 value was observed for CN(C)C/C=C/C(=O)Nc1cccc(S(=O)(=O)N2CCC(NC(=O)c3n[nH]cc3NC(=O)c3c(Cl)cc(Cl)cc3Cl)CC2)c1 [FMF-04-159-2] ?
Data returned: 8.2 nM

----------
Below, each of the molecules is paired with its reported IC50 value.
# Target System: Cdk14 (Homo sapiens (Human), UniProt O94921)
Dear colleague, please return just the value in nM, with no unit written.

The examples below pair each entry with its known result.
C=CC(=O)Nc1cccc(S(=O)(=O)N2CCC(NC(=O)c3n[nH]cc3NC(=O)c3c(F)cccc3OC)CC2)c1 ... 88
C=CC(=O)Nc1cccc(S(=O)(=O)N2CCC(NC(=O)c3n[nH]cc3NC(=O)c3c(Cl)cc(Cl)cc3Cl)CC2)c1 ... 1050
CN(C)C/C=C/C(=O)Nc1cccc(S(=O)(=O)N2CCC(NC(=O)c3n[nH]cc3NC(=O)c3c(Cl)cc(Cl)cc3Cl)CC2)c1 ... 718

Let's switch to this molecule now.
Data request: Would you mind telling me what IC50 value was observed for CN(C)C/C=C/C(=O)Nc1cccc(S(=O)(=O)N2CCC(NC(=O)c3n[nH]cc3NC(=O)c3c(F)cccc3F)CC2)c1 ?
Data returned: 268

----------
Below, each of the compounds is paired with its reported Cellular Potency by Pulldown value.
# Target System: Cdk14 (Homo sapiens (Human))
# Assay Details: Cellular pull down with biotinylated probe, CDK14;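 also: biotinylated probe used at 1 µM in lysates overnight at 4 °C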
# Assay type: cell-based
# Condition Description: HEK293 cells overexpressing Cdk14-flag, 4 hours treatment; some cells print Y or N instead of a concentration
# Sequence (O94921 whole entry): as the sequence (O94921 whole entry, looked up) above
Dear colleague, please return just the value in µM, with no unit written.

The examples below pair each entry with its known result.
CN(C)C/C=C/C(=O)Nc1cccc(S(=O)(=O)N2CCC(NC(=O)c3n[nH]cc3NC(=O)c3c(F)cc(F)cc3F)CC2)c1 [FMF-04-095-2] ... 0.5
C=CC(=O)Nc1cccc(S(=O)(=O)N2CCC(NC(=O)c3n[nH]cc3NC(=O)c3c(Cl)cc(Cl)cc3Cl)CC2)c1 [FMF-04-159-1] ... 0.5
C=CC(=O)Nc1cccc(C(=O)N2CCC(NC(=O)c3n[nH]cc3NC(=O)c3c(Cl)cccc3Cl)CC2)c1 [FMF-03-196-1] ... 1
COc1cccc(F)c1C(=O)Nc1c[nH]nc1C(=O)NC1CCN(S(=O)(=O)c2cccc(NC(=O)/C=C/CN(C)C)c2)CC1 [FMF-04-097-2] ... 0.25
CN(C)C/C=C/C(=O)Nc1cccc(S(=O)(=O)N2CCC(NC(=O)c3n[nH]cc3NC(=O)c3c(F)cccc3F)CC2)c1 [FMF-04-096-2] ... 0.25
C=CC(=O)Nc1cccc(CN2CCC(NC(=O)c3n[nH]cc3NC(=O)c3c(F)cccc3F)CC2)c1 [FMF-04-160-1] ... 0.5

Let's switch to this compound now.
Data request: Would you mind telling me what Cellular Potency by Pulldown value was observed for CN(C)C/C=C/C(=O)Nc1cccc(C(=O)Nc2ccc(NC(=O)c3n[nH]cc3NC(=O)c3c(Cl)cccc3Cl)cc2)c1 [FMF-03-206-1] ?
Data returned: 1
